system: α1β1 Na+/K+ ATPase (Homo sapiens, UniProt P05023)
methodNotes: Na+/K+ ATPase pump binding, α1β1 isoform (radioactive displacement assay)
API: label(entry) gives 1 if the entry's Kd is strictly smaller than 200 nM; on equality or larger values it gives 0.

# strict comparison: is reported Kd < 200 nM? input = CC1OC(OC2C(C)OC(OC3C(C)OC(OC4CCC5(C)C(CCC6C5CCC5(C)C(C7=CC(=O)OC7)CCC65O)C4)C(O)C3O)C(O)C2O)C(O)C(O)C1O (centres unmarked)
0

# strict comparison: is reported Kd < 200 nM? input = CC1OC(OC2CCC(OC3CCC(OC4CCC5(C)C(CCC6C5CCC5(C)C(C7=CC(=O)OC7)CCC65O)C4)OC3C)OC2C)CCC1O (centres unmarked)
0

# strict comparison: is reported Kd < 200 nM? input = CC1OC(OC2CCC(OC3CCC4(C)C(CCC5C4CCC4(C)C(C6=CC(=O)OC6)CCC54O)C3)OC2C)CCC1O (centres unmarked)
0

# strict comparison: is reported Kd < 200 nM? input = CC1O[C@@H](O[C@H]2CCC3(C)C(CC[C@@H]4C3CCC3(C)[C@@H](C5=CC(=O)OC5)CC[C@]43O)C2)C(O)C(O)[C@H]1O (stereo partly drawn) [Compound 1.2, digitoxigenin α-L-rhamnopyranoside]
1

# strict comparison: is reported Kd < 200 nM? input = CC1O[C@@H](O[C@H]2CCC3(C)C(CC[C@@H]4C3CCC3(C)[C@@H](C5=CC(=O)OC5)CC[C@]43O)C2)CC[C@H]1O (stereo partly drawn) [Compound 1.5, digitoxigenin α-L-amecitopyranoside]
1

Values from patent US20160176914A1
